Every entry's value here was drawn from paper PMC12910498.

Target: human D2R long isoform (Homo sapiens, UniProt P14416)
Sequence (P14416 whole entry, canonical isoform): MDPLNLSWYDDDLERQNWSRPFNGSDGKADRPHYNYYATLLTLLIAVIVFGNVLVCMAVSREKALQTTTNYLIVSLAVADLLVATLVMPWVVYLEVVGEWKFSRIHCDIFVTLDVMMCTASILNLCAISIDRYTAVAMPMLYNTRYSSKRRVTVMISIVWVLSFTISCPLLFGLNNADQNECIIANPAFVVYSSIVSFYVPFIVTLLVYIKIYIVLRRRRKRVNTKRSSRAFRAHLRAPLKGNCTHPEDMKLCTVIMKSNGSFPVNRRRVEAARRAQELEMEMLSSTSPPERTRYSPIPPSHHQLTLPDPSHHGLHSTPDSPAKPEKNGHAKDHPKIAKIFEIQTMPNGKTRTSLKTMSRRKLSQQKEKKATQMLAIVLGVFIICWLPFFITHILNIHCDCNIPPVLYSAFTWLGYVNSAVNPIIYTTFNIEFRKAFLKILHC
Test: DiscoverX PathHunter β-arrestin recruitment assay, D2R
Settings: antagonist mode, EC80 dopamine (1 μM), normalized to spiperone
Measured D2R Ant (%), listed per entry.
State just the number; it will be interpreted in %.

Worked cases, answers included:
{"compound": "Cc1cccc(-n2cc(CN3CCN(c4cccc5ccccc45)CC3)nn2)c1 [Compound 18]", "D2R Ant (%)": 87.8}
{"compound": "Cc1cccc(-n2cc(CN3CCN(c4ncccn4)CC3)nn2)c1 [Compound 16]", "D2R Ant (%)": 73.2}
{"compound": "Cc1cccc(-n2cc(CN3CCC(c4ccccc4)CC3)nn2)c1 [Compound 14]", "D2R Ant (%)": 112}

Query: Dear colleague, I am looking for the recorded D2R Ant (%) of the following compound: Cc1cccc(-n2cc(CN3CCN(c4ccccn4)CC3)nn2)c1 [Compound 15]
Response: 87.7
